Reference source for all entries: patent US20030087906A1

- System: SNB-19
- protocol: NCI 60-cell line growth inhibition assay
- Type: cell-based
- settings: Homo sapiens; SNB-19 (CNS)
endpoint: GI50 (nM)
State just the number; it will be interpreted in nM.

**Q:** Give the measured GI50 for CC(=O)N[C@H]1CC[C@H](Nc2nc(NCc3ccc(-c4ccccc4)nc3)c3ncn(C(C)C)c3n2)CC1
**A:** 38

**Q:** In one line, give reported GI50 of the entry CC[C@H](CO)Nc1nc(NCc2ccc(-c3cccc([N+](=O)[O-])c3)cc2)c2ncn(C(C)C)c2n1 .
**A:** 20

**Q:** Give GI50 for CC(C)n1cnc2c(NCc3ccc(-c4ccsc4)cc3)nc(N[C@H]3CC[C@H](N)CC3)nc21
**A:** 16

**Q:** Assign GI50 to the following record: Cn1cnc2c(NCc3ccccc3)nc(NCCO)nc21 [Olomoucine, reference compound]
**A:** 63000

**Q:** Return GI50 for the following molecule: CC[C@H](CO)Nc1nc(NCc2ccc(-c3ccc(OC)cc3)cc2)c2ncn(C(C)C)c2n1
**A:** 5000

---

- System: HeLa S-3 cells
- protocol: Inhibition of cell growth of HeLa cells (SRB)
- Format: cell-based, human
- settings: 2 days of treatment, replicate experiments
- Protocol: Growth inhibition (GI50) values were measured with HeLa S-3 cells selected for growth on plastic. […] One day later, a control plate was fixed by addition of TCA to 5%. After five rinses with tap water the plate was air dried and stored at 4° C. Test compounds were added to the remaining plates at 10-fold dilutions between 0.01 and 100 μM. Two days later all plates were fixed as described above. […] Dye was quantified by measuring absorbance at 490 nm on a Molecular Devices kinetic microplate reader. […]
Provide the recorded GI50 for the entries that follow.
Number in nM, nothing else.

**Q:** Send back HeLa S-3 cells GI50 of CC(=O)N[C@H]1CC[C@H](Nc2nc(NCc3ccc(-c4cccc(Cl)c4)cc3)c3ncn(C(C)C)c3n2)CC1 only.
**A:** 20

**Q:** Under HeLa S-3 cells: report GI50 of CC(C)n1cnc2c(NCc3ccc(-c4ccccn4)nc3)nc(N[C@H]3CC[C@H](N)CC3)nc21 .
**A:** 300

**Q:** Report GI50 from HeLa S-3 cells testing of CC(C)n1cnc2c(NCc3ccc(-c4ccccc4)cc3)nc(N[C@H]3CC[C@H](NC(=O)C4CC4)CC3)nc21
**A:** 300

**Q:** Output reported GI50 of the compound CC(C)n1cnc2c(NCc3ccc(-c4ccc(F)c(Cl)c4)cc3)nc(N[C@H]3CC[C@H](N)CC3)nc21 on HeLa S-3 cells.
**A:** 30

---

Consider the following compounds; for each one, report its GI50.
- Test system: SR
- protocol: NCI 60-cell line growth inhibition assay
- Assay type: cell-based
- settings: Homo sapiens; SR (Leukemia)

**Q:** Quote GI50 reported for CC[C@H](CO)Nc1nc(NCc2ccc(-c3cccc([N+](=O)[O-])c3)cc2)c2ncn(C(C)C)c2n1 [Compound 48] please.
**A:** 160 nM

**Q:** Find the measured GI50 of Cn1cnc2c(NCc3ccccc3)nc(NCCO)nc21 [Olomoucine, reference compound] and report it.
**A:** 25000 nM

**Q:** For the compound CC(=O)N[C@H]1CC[C@H](Nc2nc(NCc3ccc(-c4ccccn4)cc3)c3ncn(C(C)C)c3n2)CC1 [Compound 79] , give its measured GI50 value.
**A:** < 10 nM

**Q:** Return the recorded GI50 value; entry: CC(=O)N[C@H]1CC[C@H](Nc2nc(NCc3ccc(-c4ccccc4)nc3)c3ncn(C(C)C)c3n2)CC1 [Compound 87]
**A:** 32 nM

**Q:** Return GI50 for the following compound: CC[C@H](CO)Nc1nc(NCc2ccc(-c3ccc(OC)cc3)cc2)c2ncn(C(C)C)c2n1 [Compound 43]
**A:** 2200 nM

**Q:** Give the measured GI50 for CC(C)n1cnc2c(NCc3ccc(-c4ccsc4)cc3)nc(N[C@H]3CC[C@H](N)CC3)nc21 [Compound 12]
**A:** < 5 nM

---

What GI50 was measured for each of the following?
- Test system: OVCAR-3
- protocol: NCI 60-cell line growth inhibition assay
- Assay type: cell-based
- settings: Homo sapiens; Ovarian, OVCAR-3
Your answer is read as µM, so omit the unit and give the number.

**Q:** Given the compound CC[C@H](CO)Nc1nc(NCc2ccc(-c3ccccn3)cc2)c2ncn(C(C)C)c2n1 [Compound 17] , write its reported GI50.
**A:** 0.65

**Q:** Give the reported GI50 for this compound. CC[C@H](CO)Nc1nc(NCc2ccc(-c3cccc(C(F)(F)F)c3)cc2)c2ncn(C(C)C)c2n1 [Compound 38]
**A:** 1

**Q:** Indicate the recorded GI50 value for this compound: CC[C@H](CO)Nc1nc(NCc2ccc(-c3ccccc3)cc2)c2ncn(C(C)C)c2n1 [Compound 73]
**A:** 0.3

---

- System: HeLa S-3 cells
- protocol: Inhibition of cell growth of HeLa cells (SRB)
- Assay type: cell-based, human
- settings: Homo sapiens, HeLa S3, 48 h, 2 days of treatment, replicate experiments
endpoint: GI50 (nM)
Unit nM implied. Number only.

**Q:** Could you please provide reported GI50 for CCCN[C@H]1CC[C@H](Nc2nc(NCc3ccc(-c4cc(C)cc(C)c4)cc3)c3ncn(C(C)C)c3n2)CC1 ? Thanks!
**A:** 800

**Q:** Read the entry Cc1ccc(-c2ccc(CNc3nc(N[C@H]4CC[C@H](N)CC4)nc4c3ncn4C(C)C)cc2)s1 and write its reported GI50.
**A:** 500

**Q:** Quick one: give measured GI50 for CC(C)n1cnc2c(NCCc3ccc(-c4ccccc4)cc3)nc(N[C@H]3CC[C@H](N)CC3)nc21
**A:** 6000

**Q:** Please report GI50 for the following compound: CC(=O)NCCCNc1nc(NCc2ccc(-c3ccccc3)cc2)c2ncn(C(C)C)c2n1
**A:** 5000

---

I'd be grateful if you could share measured GI50 for these entries.
- System: HeLa S-3 cells
- protocol: Inhibition of cell growth of HeLa cells (SRB)
- Assay type: cell-based, human
- settings: Homo sapiens, HeLa S3, 48 h, 2 days of treatment, replicate experiments
Write the answer as a number in nM, unit excluded.

**Q:** Under HeLa S-3 cells, report GI50 for CCCNCCCCNc1nc(NCc2ccc(-c3ccccc3)cc2)c2ncn(C(C)C)c2n1
**A:** 2000

**Q:** Give GI50 for this entry on HeLa S-3 cells: CCCN[C@H]1CC[C@H](Nc2nc(NCc3ccc(-c4cc(OC)ccc4OC)cc3)c3ncn(C(C)C)c3n2)CC1
**A:** 500

**Q:** // output GI50; input CC[C@H](CO)Nc1nc(NCc2ccc(-c3ccc(OC)cc3)cc2)c2ncn(C(C)C)c2n1 ; system HeLa S-3 cells
**A:** 4000

**Q:** Report measured GI50 on HeLa S-3 cells; entry: CC(=O)N[C@H]1CC[C@H](Nc2nc(NCc3ccc(-c4cc(C)cc(C)c4)cc3)c3ncn(C(C)C)c3n2)CC1
**A:** 300

---

- system_name: CyclinA/cdk2 (Homo sapiens)
- protocol: CyclinA/cdk2 protein kinase assay (histone H1 phosphorylation)
- settings: IC50 CyclinA/cdk2, complex immunopurified from HeLa cells; 15 μM ATP; replicate experiments
pIC50: −log10 of the molar value.
The label depends only on pIC50: t if it is at least 6, f if it is smaller.

**Q:** pIC50 >= 6 for CC(C)n1cnc2c(NCc3ccc(-c4ccccc4)cc3)nc(N[C@H]3CC[C@H](N)CC3)nc21 [Compound 75] ?
**A:** f

**Q:** Confirm if pIC50 reported for the compound CC(=O)N[C@H]1CC[C@H](Nc2nc(NCc3ccc(-c4ccc(F)c(Cl)c4)cc3)c3ncn(C(C)C)c3n2)CC1 [Compound 100] is 6 or above.
**A:** f

**Q:** Could you please find out whether CC(C)n1cnc2c(NCc3ccc(-c4ccccc4)cc3)nc(N[C@H]3CC[C@H](O)CC3)nc21 [Compound 77] has pIC50 that meets 6 or exceeds it?
**A:** f

**Q:** Does pIC50 meet or surpass 6 for CC(=O)N[C@H]1CC[C@H](Nc2nc(NCc3ccc(-c4cccc(Cl)c4)cc3)c3ncn(C(C)C)c3n2)CC1 [Compound 110] ?
**A:** t

**Q:** Please check the record CC(C)n1cnc2c(NCc3ccc(-c4cccc(Cl)c4)cc3)nc(N[C@H]3CC[C@H](N)CC3)nc21 [Compound 109] and state if its pIC50 is at or above 6.
**A:** t

**Q:** In plain terms: is recorded pIC50 at least 6 for CC(=O)N[C@H]1CC[C@H](Nc2nc(NCc3ccc(-c4ccc(Cl)cc4)cc3)c3ncn(C(C)C)c3n2)CC1 [Compound 99] ?
**A:** f

**Q:** Check this compound for pIC50 at or above 6: CC(=O)N[C@H]1CC[C@H](Nc2nc(NCc3ccc(-c4ccc(C)cc4)cc3)c3ncn(C(C)C)c3n2)CC1 [Compound 97]
**A:** f

**Q:** Determine whether this compound has pIC50 no lower than 6: CC(=O)N[C@H]1CC[C@H](Nc2nc(NCc3ccc(-c4cccs4)cc3)c3ncn(C(C)C)c3n2)CC1 [Compound 112]
**A:** f

**Q:** Entry CC(C)n1cnc2c(NCc3ccc(-c4ccsc4)nc3)nc(N[C@H]3CC[C@H](N)CC3)nc21 [Compound 123] : is its pIC50 no less than 6?
**A:** t

**Q:** In plain terms: is recorded pIC50 at least 6 for CC(C)n1cnc2c(NCc3ccc(-c4cccc(C(=O)O)c4)cc3)nc(N[C@H]3CC[C@H](N)CC3)nc21 [Compound 118] ?
**A:** f

**Q:** State whether the measured pIC50 reaches 6, counting equality as reaching it, for CC(=O)N[C@H]1CC[C@H](Nc2nc(NCc3ccc(-c4ccsc4)nc3)c3ncn(C(C)C)c3n2)CC1 [Compound 124]
**A:** f

**Q:** # check: pIC50 of COC(=O)c1ccc(-c2ccc(CNc3nc(N[C@H]4CC[C@H](NC(C)=O)CC4)nc4c3ncn4C(C)C)cc2)cc1 [Compound 117] is greater than or equal to 6
**A:** f

**Q:** Check if pIC50 >= 6 (inclusive). Item: CC(=O)N[C@H]1CC[C@H](Nc2nc(NCc3ccc(-c4cccc(F)c4)cc3)c3ncn(C(C)C)c3n2)CC1 [Compound 96]
**A:** f

**Q:** Evaluate CC(C)n1cnc2c(NCc3ccc(-c4ccc(C(=O)O)cc4)cc3)nc(N[C@H]3CC[C@H](N)CC3)nc21 [Compound 114] : pIC50 at minimum 6?
**A:** f

**Q:** Check this compound for pIC50 at or above 6: CC(C)n1cnc2c(NCc3ccc(-c4ccccc4)cc3)nc(NC3(CO)CCCC3)nc21 [Compound 53]
**A:** f

**Q:** Please check the record COC(=O)c1ccc(-c2ccc(CNc3nc(N[C@H]4CC[C@H](N)CC4)nc4c3ncn4C(C)C)cc2)cc1 [Compound 115] and state if its pIC50 is at or above 6.
**A:** f

**Q:** Check if pIC50 >= 6 (inclusive). Item: CC(=O)N[C@@H](C)CNc1nc(NCc2ccc(-c3ccccc3)cc2)c2ncn(C(C)C)c2n1 [Compound 108]
**A:** f

**Q:** Identify whether the reported pIC50 of the following compound is 6 or greater: CC(=O)N[C@H]1CC[C@H](Nc2nc(NCc3ccc(-c4ccc(F)cc4)cc3)c3ncn(C(C)C)c3n2)CC1 [Compound 102]
**A:** f

**Q:** Identify whether the reported pIC50 of the following compound is 6 or greater: CC(=O)N[C@H]1CC[C@H](Nc2nc(NCc3ccc(-c4ccsc4)cc3)c3ncn(C(C)C)c3n2)CC1 [Compound 113]
**A:** t

**Q:** Could you verify whether the entry CC(C)n1cnc2c(NCc3ccc(-c4ccccc4)cc3)nc(N[C@H]3CCCC[C@H]3NC(=O)Nc3ccccc3)nc21 [Compound 80] shows pIC50 of no less than 6?
**A:** f

**Q:** pIC50 >= 6 for CC(C)n1cnc2c(NCc3ccc(I)cc3)nc(N[C@H]3CC[C@H](N)CC3)nc21 [Compound 11] ?
**A:** t

**Q:** Could you please find out whether CC(=O)N[C@H]1CC[C@H](Nc2nc(NCc3ccc(-c4ccc(C(=O)O)cc4)cc3)c3ncn(C(C)C)c3n2)CC1 [Compound 116] has pIC50 that meets 6 or exceeds it?
**A:** f
